// Specific cytotoxicity by CTL (%) lookup, one value per entry
Test system: T2 cells
Assay: Cytotoxicity of peptide-stimulated blood cells (CTL) against T2 cells sensitized by synthesized peptides, Cr51 release
Assay type: cell-based, human
Details: Ratio of CTL against target cell 5:1; T2 cells sensitized with 100 μg/ml peptide
No end group written: not given here.
Measurement Name: Specific cytotoxicity by CTL (%)

• HLSLRGLFV [×3, HLSLRGLFV] = 10%
• VLCLRPVGA [×1, VLCLRPVGA] = 6%
• TLPSPSSSA [×2, TLPSPSSSA] = 5%
• AMSTTDLEA [×5, AMSTTDLEA] = 16%
• EIRLKVFVL [×7, EIRLKVFVL] = 12%
• CLFKDWEEL (Hepatitis B virus) [×6, peptide derived from HBV X protein, position 115-123] = 11%
